Data credit: ChEMBL document CHEMBL1153628

// reported EC50 for each item listed
Tested on: Hepatitis C virus
Assay: Antiviral activity against HCV 1b infected in human Huh7 cells after 46-50 hrs by luc/neo ET replicon assay
Settings: genotype 1b, Huh-7, 46-50 h
Record the value in µM, omitting the unit from your answer.

CC(C)CCn1c(=O)c(C2=NS(=O)(=O)c3cc(NS(C)(=O)=O)ccc3N2)c(O)n2ccnc12 | 0.55
CC(C)CC[C@]1(C)C(=O)C(C2=NS(=O)(=O)c3cc(NS(C)(=O)=O)ccc3N2)=C(O)c2cccn21 | 4.9
CC(C)CCn1c(=O)c(C2=NS(=O)(=O)c3cc(NS(C)(=O)=O)ccc3N2)c(O)n2ncnc12 | 6.7
CC(C)CCn1c(=O)c(C2=NS(=O)(=O)c3cc(NS(C)(=O)=O)ccc3N2)c(O)n2nccc12 | 0.55
Cc1cc2n(CCC(C)C)c(=O)c(C3=NS(=O)(=O)c4cc(NS(C)(=O)=O)ccc4N3)c(O)n2n1 | 1.7

For CS(=O)(=O)Nc1ccc2c(c1)S(=O)(=O)N=C(c1c(O)n3nccc3n(Cc3ccc(F)cc3)c1=O)N2 the compound record lists EC50 as 12

* * *

// reported CC50 for each item listed
Test: Cytotoxicity against human HuH7 cells
Assay type: cell-based, Huh-7

CC(C)CC[C@@]1(C)C(=O)C(C2=NS(=O)(=O)c3cc(NS(C)(=O)=O)ccc3N2)=C(O)c2cccn21 | 19.5 µM

For CC(C)CCn1c(=O)c(C2=NS(=O)(=O)c3cc(NS(C)(=O)=O)ccc3N2)c(O)n2nccc12 the compound record lists CC50 as > 100 µM

For CC(C)CCn1c(=O)c(C2=NS(=O)(=O)c3cc(NS(C)(=O)=O)ccc3N2)c(O)n2ccnc12 the compound record lists CC50 as > 1 µM

For CC(C)CCn1c(=O)c(C2=NS(=O)(=O)c3cc(NS(C)(=O)=O)ccc3N2)c(O)n2ncnc12 the compound record lists CC50 as > 100 µM

For CS(=O)(=O)Nc1ccc2c(c1)S(=O)(=O)N=C(c1c(O)n3nccc3n(CCc3ccc(F)cc3)c1=O)N2 the compound record lists CC50 as > 100 µM

* * *

// reported CC50 for each item listed
Assay: Cytotoxicity against human HuH7 cells
Assay type: cell-based, Huh-7

CC(C)CC[C@]1(C)C(=O)C(C2=NS(=O)(=O)c3cc(NS(C)(=O)=O)ccc3N2)=C(O)c2cccn21 | 170 µM
CC(C)CCn1c(=O)c(C2=NS(=O)(=O)c3cc(NS(C)(=O)=O)ccc3N2)c(O)n2nc(C3CC3)cc12 | > 100 µM

Next compound, CC50 to be filled in.
For CS(=O)(=O)Nc1ccc2c(c1)S(=O)(=O)N=C(c1c(O)n3nccc3n(Cc3ccc(F)cc3)c1=O)N2 the compound record lists CC50 as > 100 µM
